Assay method text: MRT in ig dosed Sprague-Dawley rat by LC-MS/MS analysis
Type: ADME, organism-based
Recorded conditions: in vivo, po
Reported endpoint: MRT (h)
Respond numerically; units are h and should not be typed.

## Task Item under review: O=C(Nc1ccc(-c2ccc(C(=O)N3CCC[C@H]3C(=O)O)nc2)cc1)Nc1cccc(C(F)(F)F)c1 . Reported MRT?
## Result 3.4

###

Assay method text: Apparent permeability of the compound across apical side to basolateral side in human Caco2 cells after 95 mins by LC-MS/MS analysis
Assay type: ADME, cell-based
Recorded conditions: Caco-2
Reported endpoint: Papp A→B at 95 min (×10⁻⁶ cm/s)
The reply should contain only the number, in ×10⁻⁶ cm/s.

## Task May I ask what Papp A→B at 95 min has been recorded for O=C(Nc1ccc(-c2ccc(C(=O)N3CCC[C@H]3C(=O)O)nc2)cc1)Nc1ccccc1Cl ?
## Result 0.07

## Task // returns reported Papp A→B at 95 min for input O=C(Nc1ccc(-c2ccc(C(=O)N3CCC[C@H]3C(=O)O)nc2)cc1)Nc1cccc(C(F)(F)F)c1
## Result 0.23

## Task I'd like to know its Papp A→B at 95 min. The compound in question is O=C(Nc1ccc(-c2ccc(C(=O)N3CCC[C@H]3C(=O)O)nc2)cc1)Nc1cccc(Cl)c1
## Result 0.04
